# testDetails: NCI Yeast Anticancer Drug Screen. Data for the mlh1 rad18 strain (AID 175)
# assaySetup: S. cerevisiae mlh1 rad18 strain growth inhibition; at 50.0 µM
Compounds without any hit were thinned out: in the full panel of roughly 79,000, 15% have a hit. Activity calls are given as the source filed them. Rule as the data show it: active = growth inhibition above about 70%; inactive = the rest. Where a SMILES comes first, the peptide text is derived from it. [ ]: non-standard residue; d: D form. The star is where a group is joined. ξ: configuration not given here. Cbz = O=C(OCc1ccccc1)*; ξNva = CCCC(N)C(=O)O
Thanks in advance; please answer with one of these: TRUE (active), FALSE (inactive)

- molecule: "O=C(O)Cc1ccc2ccccc2c1"
  group: "FALSE"
- molecule: "COc1ccc(NC(=O)COc2ccc(Cl)cc2Cl)cc1"
  group: "FALSE"
- molecule: "CCCC(NC(=O)OCc1ccccc1)C(=O)NCC(=O)O (stereo unspecified) (Cbz-[ξNva]-Gly-OH)"
  group: "FALSE"
- molecule: "C(=N\\N=C\\c1ccccn1)/c1ccccn1"
  group: "FALSE"

Which outcome was assigned to N#CC1C2C1C1C=CC2n2c(=O)n(-c3ccccc3)c(=O)n21 (stereo unspecified) in this test?
FALSE

Query: recorded result category for Cc1ccc(S(=O)(=O)N(N)CCC#N)cc1 in this test
FALSE

Assay result, entry O=C(CCCn1ccnc1[N+](=O)[O-])NCCn1cnc([N+](=O)[O-])c1 — outcome?
FALSE
